Recorded measurements of Ki, one per entry
SYSTEM TESTED: Sigma intracellular receptor 2 (Homo sapiens)
Sequence (Q5BJF2 whole entry): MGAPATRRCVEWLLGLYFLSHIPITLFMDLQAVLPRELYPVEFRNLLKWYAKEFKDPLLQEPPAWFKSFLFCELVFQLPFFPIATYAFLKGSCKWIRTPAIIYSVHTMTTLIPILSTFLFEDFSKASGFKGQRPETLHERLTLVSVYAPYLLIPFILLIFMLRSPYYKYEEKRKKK
TEST DETAILS: Displacement of [3H]-di-o-tolylguanidine from sigma2 receptor (unknown origin) incubated for 1 hr in presence of (+)SKF10047 by liquid scintillation counting method
Express it in µM; write the number only.

O=C(NC1CCN(Cc2ccccc2)CC1)c1ccc(CO[N+](=O)[O-])cc1 ... 0.27

// recorded Ki for O=C(NCCN1CCC(Cc2ccccc2)CC1)c1ccc(CO[N+](=O)[O-])cc1 : 2.67

// recorded Ki for O=C(Cc1ccc(CO[N+](=O)[O-])cc1)NC1CCN(Cc2ccccc2)CC1 : 2.51

// recorded Ki for C[C@@H]1CCO[C@H]2Cn3cc(C(=O)NCc4ccc(F)cc4F)c(=O)c(O)c3C(=O)N12 [DOLUTEGRAVIR] : 0.018
